target: T1, human PD-1 ECD/Fc fusion protein (human); assay: BLI Octet, immobilized huPD-1-Fc, Ab analyte
T1 construct: also called huPD-1/Fc; HuPD-1 ECD/Fc
T1 sequence (chain, as listed by the source limits assumed): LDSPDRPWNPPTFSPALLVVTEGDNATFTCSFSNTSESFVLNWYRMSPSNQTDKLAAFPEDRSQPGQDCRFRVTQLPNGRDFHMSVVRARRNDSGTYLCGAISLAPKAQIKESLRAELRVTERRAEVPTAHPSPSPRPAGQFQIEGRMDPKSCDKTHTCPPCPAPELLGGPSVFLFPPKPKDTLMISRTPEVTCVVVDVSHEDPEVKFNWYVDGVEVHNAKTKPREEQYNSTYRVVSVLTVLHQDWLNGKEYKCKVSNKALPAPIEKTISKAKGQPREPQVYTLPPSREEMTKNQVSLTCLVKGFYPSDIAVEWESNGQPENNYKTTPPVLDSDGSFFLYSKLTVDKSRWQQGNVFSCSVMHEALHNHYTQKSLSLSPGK
// reported kon per item
Give your result in M⁻¹ s⁻¹ as a bare value.

Sample records with kon:
Please list kon recorded for the binder HumAb719-21 (antibody, human IgG1, kappa, L234A L235A, V domains shown, humanized mAb719; also called HuniAb719-21) VH: EVQLLESGGGLVQPGGSLRLSCAASGFSFSSHLMSWVRQAPGKRLEWVAAISGGGADTYYPASVKGRFTISRDNSKNTLYLQMNSLRAEDTAVYYCTRQILAFDAWGQGTTVTVSS VL: DIQMNQSPSSLSASVGDRVTITCHASQNIYVWLNWYQQKPGKIPKLLIYKASNLHTGVPSRFSGSGSGTDFTFTISSLQPEDIATYYCQQGQSYPWTFGGGTKVEIKR
104000

Please list kon recorded for the binder HumAb719-12 (antibody, human IgG1, kappa, L234A L235A, V domains shown, humanized mAb719) VH: EVQLLESGGGLVQPGGSLRLSCAASGFSFSSHLMSWVRQAPGKRLEWVAAISGGGADTYYPDSVKGRFTISRDNSKNTLYLQMNSLRAEDTAVYYCTRQILAFDSWGQGTTVTVSS VL: DIQMNQSPSSLSASVGDRVTITCHASQNIYVWLNWYQQKPGKAPKLLIYKASNLHTGVPSRFSGSGSGTDFTFTISSLQPEDIATYYCQQGQSYPWTFGGGTKVEIKR
68800

***
Please list kon recorded for the binder HumAb719-8 (antibody, human IgG1, kappa, L234A L235A, V domains shown, humanized mAb719) VH: EVQLLESGGGLVQPGGSLRLSCAASGFTFSSHLMSWVRQAPGKGLEWVSAISGGGADTYYPDSVKGRFTISRDNSKNTLYLQMNSLRAEDTAVYYCAKQILAFDSWGQGTTVTVSS VL: DIQMNQSPSSLSASVGDRVTITCHASQNIYVWLNWYQQKPGKAPKLLIYKASNLHTGVPSRFSGSGSGTDFTFTISSLQPEDIATYYCQQGQSYPWTFGGGTKVEIKR
107000

Please list kon recorded for the binder HumAb719-11 (antibody, human IgG1, kappa, L234A L235A, V domains shown, humanized mAb719) VH: EVQLLESGGGLVQPGGSLRLSCAASGFSFSSHLMSWVRQAPGKGLEWVAAISGGGADTYYPDSVKGRFTISRDNSKNTLYLQMNSLRAEDTAVYYCTRQILAFDSWGQGTTVTVSS VL: DIQMNQSPSSLSASVGDRVTITCHASQNIYVWLNWYQQKPGKAPKLLIYKASNLHTGVPSRFSGSGSGTDFTFTISSLQPEDIATYYCQQGQSYPWTFGGGTKVEIKR
59400
